assay: Acute toxicity test, oral administration; conditions: mouse, in vivo, ICR male mice (7 weeks old), read-out: LD₅₀
RESULT_TYPE: LD50 (mg/kg)
Write the value in mg/kg as a bare number.

// lookup LD50 for O=c1[nH]cc(F)c(=O)[nH]1 [Example 5-FU, 5-Fluorouracil]
309

* * *

system: platelet aggregation; experiment: Platelet aggregation-inhibitory activity in platelet-rich plasma; format: cell-based, rabbit; conditions: Oryctolagus cuniculus, aggregation caused by collagen (30 µg/ml), rabbit PRP, read-out: 50%-Inhibition concentration, Collagen
Measured IC50 of individual entries
Write the value in µM as a bare number.

Please review the following examples before continuing.
CC/C=C\C/C=C\C/C=C\C/C=C\C/C=C\CCCC(=O)OC(C)n1cc(F)c(=O)[nH]c1=O (stereo not drawn) [Example 3] = 140
CC/C=C\C/C=C\C/C=C\CCCCCCCC(=O)OC(C)n1cc(F)c(=O)[nH]c1=O (stereo not drawn) [Example 1] = 340

Could you now look at the following compound, please?
// lookup IC50 for CC/C=C\C/C=C\C/C=C\CCCCCCCC(=O)OC(CC)n1cc(F)c(=O)[nH]c1=O (stereo not drawn) [Example 2]
530
